- Assay overview: in vivo
- Applied conditions: mouse, ip
I'd appreciate it if you could supply LD50 values for the items below.
Note: unit mg/kg is implicit; provide only the numeric part.

State its LD50: CC(C)Sc1ccc([C@@H](O)[C@H](C)N2CCN(C(=O)C=Cc3ccccc3)CC2)cc1 (relative stereo)
920

State its LD50: CC(C)Sc1ccc(C(O)C(C)NC2CCC(c3ccccc3)CC2)cc1 (stereo not shown)
150

* * *

- Assay overview: in vivo
- Applied conditions: mouse, ip
I'd appreciate it if you could supply LD50 values for the items below.
Note: unit mg/kg is implicit; provide only the numeric part.

State its LD50: CC(C)Sc1ccc(C(O)C(C)Nc2cccc(C3CCCCC3)c2)cc1 (centres unmarked)
500

State its LD50: COc1cc(C=CCN2CCN(C(C)C(O)c3ccc(SC(C)C)cc3)CC2)cc(OC)c1OC (centres unmarked)
75

State its LD50: CCCCCCCCNC(C)C(O)c1ccc(SC(C)C)cc1 (centres unmarked)
32.5

State its LD50: CC(C)Sc1ccc(C(O)C(C)Nc2ccccc2)cc1 (centres unmarked)
400

State its LD50: CC(C)Sc1ccc(C(O)C(C)N2CCN(CC=Cc3ccccc3)CC2)cc1 (centres unmarked)
300
